Each recorded value in this set is attributed to patent US20240043420A1.

testedSystem: ABL1 (T315I) (Homo sapiens, UniProt P00519, T315I)
assayName: Luminescence-based ABL kinase assay (ADP-Glo, 300 μM ATP), T315I mutant
Type: biochemical
Protocol: Kinase activity of ABL1 was measured using the ADP-Glo system (Promega), which measures formation of ADP using a luminescence-based method. Compounds were serially diluted in DMSO. […] During this step, ADP was converted to ATP, a substrate for luciferase, to produce luminescence signal. Luminescence was measured on an Envision plate reader (Perkin Elmer). Luminescence signal positively correlates with kinase activity. […] IC50 values were calculated using the XLFit software.
Each entry below carries its recorded IC50.
The reply should be a number in nM, with the unit left off.

Check out these entries, answers already filled in.
>  <compound>
COc1cccc(OC)c1-c1n[nH]c2nc(NC(=O)[C@@H]3C[C@@H]3F)ccc12

>  <result>
139

$$$$
>  <compound>
COc1ccc(F)c(OC)c1-c1c[nH]c2nc(NC(=O)[C@@H]3C[C@@H]3F)ccc12

>  <result>
2.57

$$$$
>  <compound>
COc1ccccc1-c1c[nH]c2nc(NC(=O)[C@H]3C[C@@H]3CO)ccc12 (relative stereo)

>  <result>
17.8

$$$$
>  <compound>
COc1ncccc1-c1c(F)[nH]c2nc(NC(=O)[C@@H]3C[C@@H]3F)ccc12

>  <result>
19.2

$$$$
>  <compound>
COc1ncccc1-c1c[nH]c2nc(NC(=O)[C@@H]3C[C@@H]3F)ccc12

>  <result>
20.2

$$$$
>  <compound>
COc1ncc(F)c(OC)c1-c1c[nH]c2nc(NC(=O)[C@H]3C[C@H]3F)ccc12

>  <result>
39.5

$$$$
>  <compound>
O=C(Nc1ccc2c(-c3ccc4c(c3)NCC4)c[nH]c2n1)C1CC1

>  <result>
74.3

$$$$
>  <compound>
O=C(Nc1ccc2c(-c3ccn4ccnc4c3)c[nH]c2n1)C1CC1

>  <result>
1030

$$$$
>  <compound>
COc1cccc(OC)c1-c1c[nH]c2nc(NC(=O)NCC3CNC3)ccc12

>  <result>
35.8

$$$$
>  <compound>
Cc1nc2cc(-c3c[nH]c4nc(NC(=O)C5CC5)ccc34)ccc2[nH]1

>  <result>
10.5

$$$$

Request: Entry under review: COc1cc2ncnn2cc1-c1c[nH]c2nc(NC(=O)[C@@H]3C[C@@H]3F)ccc12 . Reported IC50?
Result: 151

Request: Entry under review: Nc1cccc(-c2c[nH]c3nc(NC(=O)C4CC4)ccc23)n1 . Reported IC50?
Result: 332

Request: Entry under review: O=C(Nc1ccc2c(-c3ccccc3Cl)c[nH]c2n1)C1CC1 . Reported IC50?
Result: 65.6

Request: Entry under review: COc1ccnc(OC)c1-c1c[nH]c2nc(NC(=O)NCCN3CCNCC3)ccc12 . Reported IC50?
Result: 40.6

Request: Entry under review: COc1cccc(F)c1-c1n[nH]c2nc(NC(=O)[C@@H]3C[C@@H]3F)ccc12 . Reported IC50?
Result: 38.7

Request: Entry under review: COc1ccccc1-c1c[nH]c2nc(NC(=O)[C@H]3C[C@H]3CO)ccc12 . Reported IC50?
Result: 24.6
